Kindly supply the reported Binding Signal with 300 sec Association (nm) values for the records listed here.
TESTED ON: recombinant human GREM1 (hGREM1-His; C-terminal 10His tagged, R&D, #5190-GR) (human) (UniProt O60565)
Sequence (O60565 other isoform, or with tags, fused parts or gaps limits assumed, form in doubt): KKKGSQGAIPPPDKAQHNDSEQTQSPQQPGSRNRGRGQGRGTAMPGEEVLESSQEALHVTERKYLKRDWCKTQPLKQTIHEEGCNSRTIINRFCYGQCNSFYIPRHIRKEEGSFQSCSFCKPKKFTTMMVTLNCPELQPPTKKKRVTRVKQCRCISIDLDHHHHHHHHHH
TEST: BLI Octet, captured mAb, 100 nM GREM1 + 5 uM heparin
Numbers only, in nm.

Check out these entries, answers already filled in.
BINDER	OBSERVED
H4H6260P (antibody, human IgG4, V domains shown) VH: QVQLVESGGGVVQPGRSLRLSCAASGFTFSTYGMHWVRQAPGKGLEWVAIIWYDGSNYYYADSVKGRFTISRDNSKNTLYLQMNSLRAEDTAVYYCAREDRNDVFDIWGQGTMVTVSS VL: EIVLTQSPATLSLSPGERATLSCRASQSVSSFLAWYQQKPGQAPRLLIYDSSNRATGIPARFSGSGSGTDFTLTISSLEPEDFAVYYCQQLSNWPPITFGQGTRLEIK	0.37
H4H6232P (antibody, human IgG4, V domains shown) VH: QVQLVQSGAEVKKPGASVKVSCKVSGYTLTELSMHWVRQAPGKGLEWMGGFDPEDGETIYAQKFQGRLTMTEDTSTDTAYMELSSLRSEDTAVYYCATDDYDILTSYPYNMDVWGQGTTVTVSS VL: DIQMTQSPSSLSASVGDRVTITCRASQSINNYLNWYQQKPGKAPKLLIYAASSLQSGVPSRFSGSGSGTDFTLTISSLQPEDFGTYYCQQSDSTPFTFGPGTKVDIK	0.46

Next up:
Task: Entry under review: H4H6248P (antibody, human IgG4, V domains shown) VH: QVQLVESGGGVVQPGRSLRLSCAASGFTFSNYGMHWVRQVPGKGLEWVAVIWYDGSNKYYADSVKGRFTISRDNSKNTLYLQMNSVRAEDTAVYYCARDDYGDSPGFDYWGQGTLVTVSS VL: EIVMTQSPATLSVSPGERATLSCRASQSVSSSLAWYQQKPGQAPRLLIYDASTRATGIPARFSGSGSGTEFTLTISGLQSEDFAVYYCQQYNNWPPWTFGQGTKVEIK . Reported Binding Signal with 300 sec Association (nm)?
Output: 0.37
